Reference source: the supplement of paper PMC13380429

Reported cell viability values for the following molecules.
# Test system: U2OS
# METHOD_DESCRIPTION: cell viability relative to DMSO; higher = less toxic
# CONDITION_INFO: 72 h; 100 nM
Respond with the figure and its unit, in that order.

Known cell viability results, listed for orientation:
>  <CHEMICAL_SMILES>
CS(=O)(=O)c1ccc(Oc2cc(F)cc(C#N)c2)c2c1[C@H](O)C(F)(F)C2

>  <TEST_TARGET>
U2OS

>  <OBS_VALUE>
98.7%

$$$$
>  <CHEMICAL_SMILES>
CCOc1nc2cccc(C(=O)O)c2n1Cc1ccc(-c2ccccc2-c2noc(=O)[nH]2)cc1

>  <TEST_TARGET>
U2OS

>  <OBS_VALUE>
99.5%

$$$$
>  <CHEMICAL_SMILES>
CC(=O)O/N=C1\C(=O)N(Cc2cc(Cl)ccc2Cl)c2ccc(Cl)cc21

>  <TEST_TARGET>
U2OS

>  <OBS_VALUE>
97.7%

$$$$
>  <CHEMICAL_SMILES>
FC(F)(F)C(F)(F)C(F)(F)C(F)(F)C(F)(F)C(F)(F)C(F)(F)C(F)(F)Br

>  <TEST_TARGET>
U2OS

>  <OBS_VALUE>
94.1%

$$$$
>  <CHEMICAL_SMILES>
CCc1cn([C@H]2C[C@H](O)[C@@H](CO)O2)c(=O)[nH]c1=O

>  <TEST_TARGET>
U2OS

>  <OBS_VALUE>
98.8%

$$$$
>  <CHEMICAL_SMILES>
COc1cc(OC)c(/C=C2/C(=O)Nc3ccccc32)c(OC)c1

>  <TEST_TARGET>
U2OS

>  <OBS_VALUE>
98.5%

$$$$
>  <CHEMICAL_SMILES>
N#Cc1c(Oc2ccc(F)c(NC(=O)Cc3cccc(C(F)(F)F)c3)c2)ccc2nc(NC(=O)C3CC3)sc12

>  <TEST_TARGET>
U2OS

>  <OBS_VALUE>
94.8%

$$$$

Read the next record carefully.
Problem: Returns the measured cell viability for the input molecule. Input: `N[C@@H](CCC(=O)N[C@@H](CSN=O)C(=O)NCC(=O)O)C(=O)O`
Solution: 92.9%

###

Reported SARS-CoV-2 infection rate values for the following molecules.
# Test system: A549-ACE2 infected with SARS-CoV-2
# METHOD_DESCRIPTION: SARS-CoV-2 infection rate relative to DMSO; higher = more infection
# CONDITION_INFO: 3 µM; 24 h
A number alone suffices; assume %.

Known SARS-CoV-2 infection rate results, listed for orientation:
>  <CHEMICAL_SMILES>
NC(=O)c1cnc(N[C@@H]2CCCC[C@@H]2N)nc1Nc1cccc(-n2nccn2)c1

>  <SARS-CoV-2 infection rate / %>
32

$$$$
>  <CHEMICAL_SMILES>
N=C(NCCCCCCNC(=N)NC(=N)Nc1ccc(Cl)cc1)NC(=N)Nc1ccc(Cl)cc1

>  <SARS-CoV-2 infection rate / %>
93

$$$$
>  <CHEMICAL_SMILES>
CN(NC(=O)CC(=O)NN(C)C(=S)c1ccccc1)C(=S)c1ccccc1

>  <SARS-CoV-2 infection rate / %>
68

$$$$

Problem: Returns the measured SARS-CoV-2 infection rate for the input molecule. Input: `COc1ccc(/C=C/C(=O)/C=C(O)/C=C/c2ccc(OC)c(OC)c2)cc1OC`
Solution: 97

###

# Tested on: Vero E6
# METHOD_DESCRIPTION: cell viability relative to DMSO; higher = less toxic
# CONDITION_INFO: 72 h; 10 nM
Reported cell viability values for the following compounds.
A number alone suffices; assume %.

Known cell viability results, listed for orientation:
>  <COMPOUND>
Cc1cc(O)c(-c2ccc([C@@H](C)CN)cc2)c2c1[nH]c(=O)c1sccc12

>  <OBS_VALUE>
98.8

$$$$
>  <COMPOUND>
N#Cc1cnc2c(Cl)cc(NCc3cn(CCN4CCCCCC4)nn3)cc2c1Nc1ccc(F)c(Cl)c1

>  <OBS_VALUE>
102

$$$$
>  <COMPOUND>
COc1cc(N)c(Cl)cc1C(=O)NC1CN2CCC1CC2 (centres undefined) [zacopride]

>  <OBS_VALUE>
92.8

$$$$

Problem: Provide the documented cell viability with Vero E6 as the system for `CCCC(=O)C1(c2ccccc2)CCN(C(=O)[C@@H](Cc2ccc(OC)cc2)NC(=O)[C@@H](N)Cc2cncn2C)CC1`
Solution: 101

Problem: Provide the documented cell viability with Vero E6 as the system for `Nc1ccc(C(=O)NCC(=O)O)cc1`
Solution: 99.1

###

# Tested on: Calu-3
# METHOD_DESCRIPTION: cell viability relative to DMSO; higher = less toxic
# CONDITION_INFO: 72 h; 1000 nM
y if cell viability is below 90%. n if not; exact matches included in n.

Solved entries:
>  <COMPOUND>
CCC(=O)OCC(=O)[C@@]1(OC(=O)CC)[C@H](C)C[C@H]2[C@H]3[C@H]([C@@H](O)C[C@@]21C)[C@@]1(C)C=CC(=O)C=C1C[C@H]3Cl [alclometasone-dipropionate]

>  <ASSIGNED_LABEL>
n

$$$$
>  <COMPOUND>
C[C@H]1O[C@@H](O[C@H]2CC[C@@]3(C)[C@H](CC[C@@H]4[C@@H]3C[C@@H](O)[C@]3(C)[C@@H](C5=CC(=O)OC5)CC[C@]43O)C2)C[C@H](O)[C@@H]1O[C@H]1C[C@H](O)[C@H](O[C@H]2C[C@H](O)[C@H](O[C@@H]3O[C@H](CO)[C@@H](O)[C@H](O)[C@H]3O)[C@@H](C)O2)[C@@H](C)O1 [deslanoside]

>  <ASSIGNED_LABEL>
y

$$$$

Switching to the query record.
Problem: Confirm or reject: cell viability of `NC1=N[C@@]2(c3cc(NC(=O)c4ccc(F)cn4)ccc3F)COC[C@H]2CS1` lies strictly below 90%
Solution: n

###

# Tested on: HepG2
# METHOD_DESCRIPTION: cell viability relative to DMSO; higher = less toxic
# CONDITION_INFO: 72 h; 1 nM
METRIC_NAME: cell viability (%)
A number alone suffices; assume %.

Problem: Returns the measured cell viability for the input compound. Input: O=C(O)c1cc(=O)c2c(OCC(O)COc3cccc4oc(C(=O)O)cc(=O)c34)cccc2o1 [cromoglicic-acid]
Solution: 101

Problem: Returns the measured cell viability for the input compound. Input: COc1cc2c(NC3CCN(C4CCCCC4)CC3)nc(N3CCCN(C(C)C)CC3)nc2cc1OCCCN1CCCCC1 [UNC0646]
Solution: 88.2

Problem: Returns the measured cell viability for the input compound. Input: COc1ccc2c(O[C@@H]3C[C@H]4C(=O)N[C@]5(C(=O)NS(=O)(=O)C6CC6)C[C@H]5/C=C\CCCCN(C)C(=O)[C@@H]4C3)cc(-c3nc(C(C)C)cs3)nc2c1C [simeprevir]
Solution: 102

Problem: Returns the measured cell viability for the input compound. Input: O=C(O)c1cc(=O)c2ccccc2[nH]1 [kynurenic-acid]
Solution: 93.9

###

# Tested on: U2OS
# METHOD_DESCRIPTION: cell viability relative to DMSO; higher = less toxic
# CONDITION_INFO: 72 h; 1 nM
METRIC_NAME: cell viability (%)
A number alone suffices; assume %.

Known cell viability results, listed for orientation:
>  <COMPOUND>
C[C@H](CS)C(=O)N1CCC[C@H]1C(=O)O

>  <UNIT_ANNOTATION>
%

>  <OBS_VALUE>
98.6

$$$$
>  <COMPOUND>
CO[C@H]1O[C@@H]2O[C@@]3(C)CC[C@H]4[C@H](C)CC[C@@H]([C@H]1C)[C@@]24OO3

>  <UNIT_ANNOTATION>
%

>  <OBS_VALUE>
99.1

$$$$
>  <COMPOUND>
CCN1/C(=C/C(C)=O)Sc2ccc(OC)cc21

>  <UNIT_ANNOTATION>
%

>  <OBS_VALUE>
106

$$$$
>  <COMPOUND>
COC(=O)C1=C(C)NC(C)=C(C(=O)OCC(C)C)C1c1ccccc1[N+](=O)[O-] (centres undefined)

>  <UNIT_ANNOTATION>
%

>  <OBS_VALUE>
101

$$$$

Problem: Returns the measured cell viability for the input compound. Input: `COc1cc(OC)c(/C=C2/C(=O)Nc3ccccc32)c(OC)c1`
Solution: 95

Problem: Returns the measured cell viability for the input compound. Input: COC(=O)C1=C(C)NC(C)=C(C(=O)OCCN2CCN(C(c3ccccc3)c3ccccc3)CC2)C1c1cccc([N+](=O)[O-])c1 (centres undefined)
Solution: 98.3

Problem: Returns the measured cell viability for the input compound. Input: `O=C(Nc1ccc([N+](=O)[O-])cc1O)Nc1ccccc1Br`
Solution: 98.3

Problem: Returns the measured cell viability for the input compound. Input: CC(SC(=O)c1cccs1)C(=O)NCC(=O)O (centres undefined)
Solution: 96.6

Problem: Returns the measured cell viability for the input compound. Input: CC(=O)N(CC(O)CO)c1c(I)c(C(=O)NCCO)c(I)c(C(=O)NCC(O)CO)c1I (centres undefined)
Solution: 97.1
